Please provide measured PBM binding z-score for the entries that follow.
tested on: VDR homodimer (NR concentration 270 nM); assay: PBM binding z-score (relative to random genomic background probes); higher = stronger binding; sequences stand for … in GC…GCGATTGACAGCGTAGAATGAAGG
Reply with just the number.

input: Please give the measured PBM binding z-score for this sequence: "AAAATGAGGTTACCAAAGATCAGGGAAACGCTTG"
output: 0.152

input: Item "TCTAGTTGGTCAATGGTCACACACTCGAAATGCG" has what recorded PBM binding z-score?
output: 0.178

input: I am curious: what PBM binding z-score value has been reported for "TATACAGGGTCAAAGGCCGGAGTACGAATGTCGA" ?
output: 3.02

input: Which PBM binding z-score is listed for "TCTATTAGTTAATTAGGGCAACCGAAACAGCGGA" ?
output: 0.625

input: Find the recorded PBM binding z-score belonging to "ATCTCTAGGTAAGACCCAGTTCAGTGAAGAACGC" and report it.
output: 1.3

input: # lookup: PBM binding z-score of "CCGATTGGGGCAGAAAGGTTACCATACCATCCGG"
output: -0.225

input: I am curious: what PBM binding z-score value has been reported for "GAAACGAGGGCAAGTTGATAGCAGAGTTTGATGG" ?
output: 1.97

input: Fill blank: measured PBM binding z-score of the sequence "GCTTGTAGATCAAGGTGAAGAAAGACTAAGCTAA" is ____.
output: -0.307

input: If you can, please state the reported PBM binding z-score value of "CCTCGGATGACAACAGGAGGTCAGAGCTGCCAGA" .
output: 0.749

input: Give the measured PBM binding z-score of "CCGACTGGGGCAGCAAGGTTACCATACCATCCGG" .
output: 0.0128

input: Field request: PBM binding z-score | item: "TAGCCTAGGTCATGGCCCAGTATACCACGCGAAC"
output: 0.698

input: Entry "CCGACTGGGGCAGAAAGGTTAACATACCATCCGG" has what PBM binding z-score?
output: -0.0953

input: Name the reported PBM binding z-score value associated with the sequence "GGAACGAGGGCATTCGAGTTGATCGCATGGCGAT"
output: 3.38

input: Need PBM binding z-score, item "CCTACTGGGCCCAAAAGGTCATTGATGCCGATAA"
output: 1.84

input: Please look up its PBM binding z-score: "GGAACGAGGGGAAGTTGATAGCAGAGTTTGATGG"
output: 0.565

input: Which PBM binding z-score is listed for "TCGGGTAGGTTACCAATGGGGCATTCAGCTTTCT" ?
output: 0.0681

input: Item "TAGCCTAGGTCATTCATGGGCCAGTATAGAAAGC" has what recorded PBM binding z-score?
output: 0.945

input: So what does the record say about PBM binding z-score for "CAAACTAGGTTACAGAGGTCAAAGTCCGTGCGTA" ?
output: 5.09

input: Any idea what PBM binding z-score was measured for "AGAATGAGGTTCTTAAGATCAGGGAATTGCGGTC" ?
output: -0.0897

input: Can you look up the measured PBM binding z-score of "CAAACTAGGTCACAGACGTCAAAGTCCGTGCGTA" for me?
output: 0.686

input: State the recorded PBM binding z-score for this entry: "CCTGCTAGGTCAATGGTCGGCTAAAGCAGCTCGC"
output: 0.149

input: Can you share its PBM binding z-score? I mean this sequence: "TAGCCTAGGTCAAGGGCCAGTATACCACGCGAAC"
output: 0.272

input: Any idea what its PBM binding z-score is? The sequence is "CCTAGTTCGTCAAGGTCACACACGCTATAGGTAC"
output: 6.91

input: // returns reported PBM binding z-score for input "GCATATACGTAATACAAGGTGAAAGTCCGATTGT"
output: 0.207

input: Quick check: PBM binding z-score of "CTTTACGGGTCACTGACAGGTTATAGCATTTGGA" ?
output: 1.15

input: Tell me the measured PBM binding z-score of "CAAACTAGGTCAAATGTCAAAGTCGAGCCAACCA" , please.
output: 1.05

###

test system: PPARg homodimer (NR concentration 180 nM); test: PBM binding z-score (relative to random genomic background probes); higher = stronger binding; sequences stand for … in GC…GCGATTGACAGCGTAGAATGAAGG
Could you please report measured PBM binding z-score for the items listed next?
Please reply with the value in numeric form only.

input: Item under review: "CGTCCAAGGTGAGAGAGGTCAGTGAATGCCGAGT" . Reported PBM binding z-score?
output: 2.8

input: Look at this sequence and give its reported PBM binding z-score. "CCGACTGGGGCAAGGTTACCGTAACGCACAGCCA"
output: -0.362

input: Dear colleague, I am looking for the recorded PBM binding z-score of the following sequence: "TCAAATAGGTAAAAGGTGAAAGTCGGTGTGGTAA"
output: 2.29

input: For the sequence shown here, "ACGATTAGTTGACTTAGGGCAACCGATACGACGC" , give the reported PBM binding z-score.
output: -0.134

input: Which PBM binding z-score reading was recorded for the sequence "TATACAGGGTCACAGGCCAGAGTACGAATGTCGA" ?
output: 3.45

input: Fill in the blank: the reported PBM binding z-score of "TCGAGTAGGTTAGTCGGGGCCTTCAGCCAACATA" is ____.
output: -0.555

input: For the sequence shown here, "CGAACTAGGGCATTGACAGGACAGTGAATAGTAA" , give the reported PBM binding z-score.
output: 0.464

input: So what does the record say about PBM binding z-score for "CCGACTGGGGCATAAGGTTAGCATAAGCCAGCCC" ?
output: -0.109

input: Quick one: PBM binding z-score for "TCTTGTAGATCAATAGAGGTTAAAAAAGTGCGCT" ?
output: 0.579

input: Endpoint output: PBM binding z-score of "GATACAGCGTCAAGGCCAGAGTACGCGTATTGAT" . Value?
output: -0.474

input: Any idea what its PBM binding z-score is? The sequence is "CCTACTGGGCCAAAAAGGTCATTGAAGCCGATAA"
output: 3.29

input: Which PBM binding z-score value belongs to "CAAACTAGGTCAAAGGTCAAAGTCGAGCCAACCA" ?
output: 5.09

input: Look up PBM binding z-score: "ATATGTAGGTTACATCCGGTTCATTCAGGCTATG"
output: 1.08

input: Requested field: PBM binding z-score. Item: "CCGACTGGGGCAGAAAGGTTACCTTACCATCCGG"
output: 0.0892

input: Which PBM binding z-score reading was recorded for the sequence "GGAACGAGGGCATTCGAGTTGATAGAATGGCGAT" ?
output: -0.265

input: I have this sequence here, "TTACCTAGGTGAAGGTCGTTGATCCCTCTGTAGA" , and I need its recorded PBM binding z-score.
output: 0.298

input: # get_value(readout='PBM binding z-score', item= "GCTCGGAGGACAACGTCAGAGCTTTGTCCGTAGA" )
output: -2.11

input: Return reported PBM binding z-score; argument: "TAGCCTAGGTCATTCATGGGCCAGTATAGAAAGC"
output: 1.08

input: Query: PBM binding z-score; subject: "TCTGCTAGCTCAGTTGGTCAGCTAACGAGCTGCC"
output: -1.73

input: Look up PBM binding z-score for this sequence: "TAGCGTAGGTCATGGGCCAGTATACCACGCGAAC"
output: 0.862

input: Record request: PBM binding z-score value, item "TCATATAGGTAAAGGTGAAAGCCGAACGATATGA"
output: 1.25

input: If you can, please state the reported PBM binding z-score value of "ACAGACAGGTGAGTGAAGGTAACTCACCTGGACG" .
output: -0.03

input: Fill in: PBM binding z-score of "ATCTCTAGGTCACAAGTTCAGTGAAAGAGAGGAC" is ___
output: 2.82

input: Tell me the measured PBM binding z-score of "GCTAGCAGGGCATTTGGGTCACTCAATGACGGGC" , please.
output: 0.341

input: Entry under review: "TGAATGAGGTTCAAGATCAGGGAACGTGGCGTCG" . Reported PBM binding z-score?
output: -0.0825

input: Any idea what its PBM binding z-score is? The sequence is "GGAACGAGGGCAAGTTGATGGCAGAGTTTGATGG"
output: 0.499

input: If you can, please state the reported PBM binding z-score value of "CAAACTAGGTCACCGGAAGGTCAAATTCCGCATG" .
output: 7.39

input: Data request, read-out PBM binding z-score, for "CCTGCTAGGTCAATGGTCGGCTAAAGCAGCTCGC"
output: 1.3

input: Quick one: PBM binding z-score of "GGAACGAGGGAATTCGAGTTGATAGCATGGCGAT" ?
output: -0.611

input: Given the sequence "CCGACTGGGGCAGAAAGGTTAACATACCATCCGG" , what is its reported PBM binding z-score?
output: 1.53

input: Field request: PBM binding z-score | item: "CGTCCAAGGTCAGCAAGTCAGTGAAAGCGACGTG"
output: 2.24

input: Which PBM binding z-score reading was recorded for the sequence "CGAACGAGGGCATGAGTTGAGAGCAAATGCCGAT" ?
output: -0.198

input: Requested read-out: PBM binding z-score. Entry: "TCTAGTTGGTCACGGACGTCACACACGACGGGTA"
output: 0.55

input: Tell me the measured PBM binding z-score of "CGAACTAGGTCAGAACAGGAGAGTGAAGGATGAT" , please.
output: 0.511

input: What value of PBM binding z-score has been recorded for this entry: "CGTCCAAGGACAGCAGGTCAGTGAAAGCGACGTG"
output: -0.0601

input: Returns the measured PBM binding z-score for the input sequence. Input: "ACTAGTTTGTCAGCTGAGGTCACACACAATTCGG"
output: 2.72

input: Returns the measured PBM binding z-score for the input sequence. Input: "TCTGCTAGGTCAGCGATGGTCAGCTAATCTGCTA"
output: 0.723

input: // query PBM binding z-score value for entry "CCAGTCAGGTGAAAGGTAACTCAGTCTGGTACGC"
output: 1.17

input: # input sequence: "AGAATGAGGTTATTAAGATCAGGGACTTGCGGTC" ; wanted: its PBM binding z-score
output: 0.911

input: Can you look up the measured PBM binding z-score of "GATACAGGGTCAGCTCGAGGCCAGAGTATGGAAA" for me?
output: 1.54

input: Requested read-out: PBM binding z-score. Entry: "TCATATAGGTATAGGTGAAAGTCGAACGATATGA"
output: 0.0595

input: If you can, please state the reported PBM binding z-score value of "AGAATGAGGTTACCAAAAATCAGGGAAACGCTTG" .
output: 0.553

input: What value of PBM binding z-score has been recorded for this entry: "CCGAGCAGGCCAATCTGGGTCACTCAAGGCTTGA"
output: 0.368

input: Consider the sequence "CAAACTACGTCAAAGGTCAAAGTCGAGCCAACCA" and give its measured PBM binding z-score.
output: 4.03

input: Give the measured PBM binding z-score of "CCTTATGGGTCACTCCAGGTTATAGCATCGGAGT" .
output: 1.61

input: I am curious: what PBM binding z-score value has been reported for "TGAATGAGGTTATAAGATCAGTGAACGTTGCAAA" ?
output: 0.394

input: PBM binding z-score lookup needed for "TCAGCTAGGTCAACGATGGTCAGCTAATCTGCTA" , thanks.
output: 1.38

input: Form field: reported PBM binding z-score of "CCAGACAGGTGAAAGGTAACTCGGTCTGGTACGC"
output: 0.981

input: Given the entry "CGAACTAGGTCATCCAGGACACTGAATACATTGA" , report its measured PBM binding z-score.
output: 2.19

input: Please give the measured PBM binding z-score for this sequence: "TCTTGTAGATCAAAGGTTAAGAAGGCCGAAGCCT"
output: 0.29

input: May I ask what PBM binding z-score has been recorded for "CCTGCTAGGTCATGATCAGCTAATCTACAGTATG" ?
output: 0.98
